B1: Zinc finger MYM-type protein 2, residues 463 to 506; numbered along this chain, Q9UBW7 (parent)
chain: IMNCCEQCGEYLPSKGAGNNVLVIDGQQKRFCCQSCVSEYKQVG

- Variants of: B1
- test.details: abundance fitness (aPCA) (normalised: wild type 0, dead -1); higher = more abundant; growth selection in yeast, the domain comes from the species named
- measurement.parameters: Homo sapiens
quantity.kind: abundance fitness
The reply should be a number, written without any unit.

Observe how each entry below is paired with its result.
- mutation.name: "I1R"
  abundance fitness: -0.255
- mutation.name: "M2W"
  abundance fitness: -0.687

*Q* Name the recorded abundance fitness of the variant listed here: `Q7R`
*A* -0.019

*Q* Name the recorded abundance fitness of the variant listed here: `S35E`
*A* 0.006
